Target: insulin receptor (insulin receptor tyrosine kinase assay)
Assay: cell-based or functional assay
testReadout: activity of insulin receptor tyrosine kinase
Record the result as a number with its unit.

Prompt: Supply recorded activity of insulin receptor tyrosine kinase for RYKYQWFYI [IRBP-9A (SEQ ID NO:190)] here.
Response: 40.3 U/ml

Prompt: Supply recorded activity of insulin receptor tyrosine kinase for RYKYQCWYI [IRBP-9D (SEQ ID NO:193)] here.
Response: 66 U/ml

Prompt: Supply recorded activity of insulin receptor tyrosine kinase for RYKYQCFYI [IRBP-9B (SEQ ID NO:191)] here.
Response: 79.8 U/ml

Prompt: Supply recorded activity of insulin receptor tyrosine kinase for RYKYQWWYI [IRBP-9C (SEQ ID NO:192)] here.
Response: 44.2 U/ml

Values from patent US20130310313A1
